- experimental-protocol: Thermostability (Tm, Tonset, Tagg) by Nanotemper DSF
- Format: physicochemical
- Design: key: temperatures in °C
- recorded-conditions: Average of two replicates; anti-Fel d1 VHH
Documented Tonset ø (mean) across a set of molecules
# respond with the number and nothing more

Example results:
>  <molecule>
SDAB22110-3-2-H08: anti-Fel d1 VHH clone, SEQ ID NO: 53 (protein) VHH: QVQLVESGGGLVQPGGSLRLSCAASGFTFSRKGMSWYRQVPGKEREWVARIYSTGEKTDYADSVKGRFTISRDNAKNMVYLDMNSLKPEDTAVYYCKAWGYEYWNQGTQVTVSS

>  <observed-measurement>
37.18

$$$$
>  <molecule>
SDAB22110-3-1-D9-1: anti-Fel d1 VHH clone, SEQ ID NO: 52 (protein) VHH: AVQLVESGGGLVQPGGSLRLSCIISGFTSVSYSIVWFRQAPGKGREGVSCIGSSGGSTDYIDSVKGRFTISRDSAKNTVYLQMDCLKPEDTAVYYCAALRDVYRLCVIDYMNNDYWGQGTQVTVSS

>  <observed-measurement>
32.74

$$$$

Could you now consider this next molecule?
Using the record for SDAB22110-1-1-B9-1: anti-Fel d1 VHH clone, SEQ ID NO: 50 (protein) VHH: DVQLVESGGGWVQPGGSLRLSCAASGFTFTSYALSWVRQAPGKGLEWVSLADARGTSTTYADSVKGRFTISKDNPRNTLYLLMNSLKPEDTAVYYCTKGFDGNWYPDYDYWGQGTQVTVSS , report its Tonset ø (mean).
42.07

Values compiled from patent US20240352105A1.
